Data origin: the supplement of paper PMC10981050

# System: MOLM14
# Method Description: cell viability relative to vehicle control; higher = less cytotoxic;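 also: after 48 h exposure read by CellTiter-Glo luminescence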
# Details: 10 µM; SRSF2 genotype: SRSF2 wt/wt
Provide the reported cell viability of each item.
Answers are plain numbers, in %.

Cc1cc(C)c(CN2CCc3c(Cl)cc(-c4c(C)noc4C)c(Cl)c3C2=O)c(=O)[nH]1 = 79.8

Hi, could you look up cell viability for each item in my list?
1. Cc1ccc(NS(=O)(=O)c2ccc3c(c2)C2C=CCC2C(c2ccc(C(=O)O)cc2)N3)cc1C (stereo not drawn)
2. CC=Cc1cc(OC)c2c(c1)C(C)C(c1ccc(O)c(OC)c1)O2 (stereo not drawn) [Dehydrodiisoeugenol]
3. CNC(=O)c1cc(Oc2ccc(NC(=O)Nc3cc(C(C)(C)C)nn3-c3ccc4ncccc4c3)c(F)c2)ccn1 [DCC-2036 (Rebastinib)]
4. O=C(COc1cccc2c(=O)[nH]ccc12)c1ccccc1
5. COC(=O)N(C)c1c(N)nc(-c2nn(Cc3ccccc3F)c3ncccc23)nc1N [Riociguat (BAY 63-2521)]
6. O=C1C(N(CO)C(=O)NCO)N(CO)C(=O)N1CO (stereo not drawn) [Diazolidinyl urea]

A.
104
97.8
1.54
98.5
94
104

Note to self: cell viability recorded for "CN(C[C@@H]1COCCO1)S(=O)(=O)Nc1ccc2ccc3ncc(-c4cnn(C)c4)cc3c(=O)c2c1" was 16.7

* * *

# System: MARIMO
# Method Description: cell viability relative to vehicle control; higher = less cytotoxic
# Details: 10 µM; SRSF2 genotype: SRSF2 wt/wt
So I've got a bunch of molecules here, and I need their cell viability values.
Give bare numbers, in %.

For every record below, what is its cell viability?
1. CC1(C)CC[C@]2(NC(=O)C(C)(F)F)CC[C@]3(C)[C@H](C(=O)C=C4[C@@]5(C)C=C(C#N)C(=O)C(C)(C)[C@@H]5CC[C@]43C)[C@@H]2C1 [Omaveloxolone (RTA-408)]
2. Nc1nonc1C(=Nc1ccc(F)c(Cl)c1)NO
3. O=C(O)C(O)Cc1ccc(O)c(O)c1 (stereo unspecified) [Sodium Danshensu]
4. CN1CCN2c3ncccc3Cc3ccccc3C2C1 (stereo unspecified) [Mirtazapine (Remeron, Avanza)]

A.
0.48
97.2
107
96.8

For each of the molecules below, state cell viability.
1. CC(C)=CCC[C@](C)(O[C@@H]1O[C@H](CO)[C@@H](O)[C@H](O)[C@H]1O)[C@H]1CC[C@]2(C)[C@@H]1[C@H](O)C[C@@H]1[C@@]3(C)CC[C@H](O[C@@H]4O[C@H](CO)[C@@H](O)[C@H](O)[C@H]4O[C@@H]4O[C@H](CO)[C@@H](O)[C@H](O)[C@H]4O)C(C)(C)[C@@H]3CC[C@]12C [Ginsenoside Rd]
2. Oc1ncnc2[nH]ncc12 [Allopurinol (Zyloprim)]

A.
[96.8, 98.3]

* * *

Give measured cell viability for each item. Keep answers brief.
# System: K562
# Method Description: cell viability relative to vehicle control; higher = less cytotoxic
# Details: 10 µM; SRSF2 genotype: SRSF2 wt/wt
Answers are plain numbers, in %.

Here's what some known entries look like.
C[C@H](Oc1ccc(S(C)(=O)=O)cc1C(=O)N1CCN(c2ncc(C(F)(F)F)cc2F)CC1)C(F)(F)F = 95
CC(=O)OC(CC(C)C1=C2CC(O)C3C4(C)CCC(=O)C(C)(C)C4CCC3(C)C2(C)CC1)C1OC1(C)C (stereo not drawn) [Alisol B Acetate] = 87.8
CCC(=O)O[C@]1(C(=O)SCF)[C@H](C)C[C@H]2[C@@H]3C[C@H](F)C4=CC(=O)C=C[C@]4(C)[C@@]3(F)[C@@H](O)C[C@@]21C [Fluticasone propionate (Flonase, Veramyst)] = 88
CC1(C)S[C@@H]2[C@H](NC(=O)[C@H](N)c3ccc(O)cc3)C(=O)N2[C@H]1C(=O)O [Amoxicillin (Amoxycillin)] = 91.7
Nc1ncnc2c1ncn2[C@@H]1O[C@H](CO)C[C@H]1O [Cordycepin] = 89.3
Cc1ccc(C(C)C)cc1O [Carvacrol] = 98.7
CCCCC[C@H](O)CC(=O)CCc1ccc(O)c(OC)c1 [6-Gingerol] = 82.9

Bench note, K562: entry Clc1ccc(C(Cn2ccnc2)OCc2c(Cl)cccc2Cl)c(Cl)c1 (stereo not drawn) [Isoconazole nitrate (Travogen)] , its cell viability = 68.3
